The reported measurements were obtained from the supplement of paper PMC6555819.

Kindly state PBM binding z-score for each of the entries shown.
- System: RARa:RXR (NR concentration 270 nM, RXRa partner concentration 90 nM)
- EXPERIMENT_NOTES: PBM binding z-score (relative to random genomic background probes); higher = stronger binding; sequences stand for … in GC…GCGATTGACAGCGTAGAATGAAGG
One number for each entry.

Please review the entries below; each comes with its answer.
{"SEQUENCE_RECORD": "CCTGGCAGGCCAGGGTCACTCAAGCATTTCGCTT", "PBM binding z-score": 3.1}
{"SEQUENCE_RECORD": "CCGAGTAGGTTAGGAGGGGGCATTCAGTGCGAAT", "PBM binding z-score": 2.88}
{"SEQUENCE_RECORD": "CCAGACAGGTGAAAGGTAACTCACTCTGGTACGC", "PBM binding z-score": 1.84}
{"SEQUENCE_RECORD": "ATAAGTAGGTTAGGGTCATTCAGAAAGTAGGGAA", "PBM binding z-score": 5.36}
{"SEQUENCE_RECORD": "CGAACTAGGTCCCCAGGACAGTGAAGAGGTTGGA", "PBM binding z-score": -0.649}
{"SEQUENCE_RECORD": "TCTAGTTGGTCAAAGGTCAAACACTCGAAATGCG", "PBM binding z-score": 7.64}
{"SEQUENCE_RECORD": "TCTGCTAGGTCAGGTGGTCAGCTAACGAGCTGCC", "PBM binding z-score": 1.18}
{"SEQUENCE_RECORD": "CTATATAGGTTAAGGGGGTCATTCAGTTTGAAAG", "PBM binding z-score": 6.42}

Please supply PBM binding z-score for each of the following items, keeping them in order.
1. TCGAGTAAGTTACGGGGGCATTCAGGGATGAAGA
2. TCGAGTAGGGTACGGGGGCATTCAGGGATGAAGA
3. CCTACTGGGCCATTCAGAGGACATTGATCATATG
4. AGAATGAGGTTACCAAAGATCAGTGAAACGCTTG

A:
2.22
2.86
-0.457
1.9

====

- Tested on: VDR homodimer (NR concentration 270 nM)
- EXPERIMENT_NOTES: PBM binding z-score (relative to random genomic background probes); higher = stronger binding; sequences stand for … in GC…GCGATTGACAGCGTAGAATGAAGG
I'd appreciate it if you could supply PBM binding z-score values for the items below.
Answers are plain numbers.

Take a look at these entries with their results.
{"SEQUENCE_RECORD": "CCCAGTAGGTTACGAGGGGGCATTCAGTGCGAAT", "PBM binding z-score": 3.62}
{"SEQUENCE_RECORD": "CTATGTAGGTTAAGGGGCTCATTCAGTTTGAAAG", "PBM binding z-score": 0.323}
{"SEQUENCE_RECORD": "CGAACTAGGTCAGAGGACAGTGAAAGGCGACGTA", "PBM binding z-score": "-7.91e-05"}

For each listed entry, give its PBM binding z-score.
1. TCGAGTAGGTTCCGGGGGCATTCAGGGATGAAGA
2. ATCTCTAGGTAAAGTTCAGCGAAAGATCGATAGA
3. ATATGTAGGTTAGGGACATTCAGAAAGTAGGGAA
4. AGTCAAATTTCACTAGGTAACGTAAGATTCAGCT

A:
1: 3.01; 2: 1.66; 3: 0.36; 4: 0.31

Dear colleague, could you please provide PBM binding z-score for the sequences listed below?
1. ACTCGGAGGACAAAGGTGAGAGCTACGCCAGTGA
2. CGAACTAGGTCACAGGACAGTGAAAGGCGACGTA
3. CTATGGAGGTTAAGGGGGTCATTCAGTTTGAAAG
4. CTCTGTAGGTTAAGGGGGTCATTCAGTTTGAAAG

A:
0.0446
0.381
6.81
5.47

State recorded PBM binding z-score for all listed sequences.
1. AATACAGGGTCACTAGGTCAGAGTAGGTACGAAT
2. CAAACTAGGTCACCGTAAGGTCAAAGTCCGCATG
3. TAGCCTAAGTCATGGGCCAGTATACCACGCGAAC
4. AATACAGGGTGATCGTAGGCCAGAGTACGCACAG
5. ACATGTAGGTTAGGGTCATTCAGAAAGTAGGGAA
6. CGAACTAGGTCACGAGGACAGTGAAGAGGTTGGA
7. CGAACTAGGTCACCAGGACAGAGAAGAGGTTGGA

A:
1. 3.55
2. 4.19
3. -0.135
4. 0.376
5. 3.75
6. 0.957
7. 0.617

====

- Tested on: RARa:RXR (NR concentration 270 nM, RXRa partner concentration 90 nM)
- EXPERIMENT_NOTES: PBM binding z-score (relative to random genomic background probes); higher = stronger binding; sequences stand for … in GC…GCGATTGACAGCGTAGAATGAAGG
Use true (1) when the recorded PBM binding z-score is no lower than 3; use false (0) when it is lower.

Examples with answers:
{"SEQUENCE_RECORD": "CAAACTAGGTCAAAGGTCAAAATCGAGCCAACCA", "CLASS_LABEL": "true (1)"}
{"SEQUENCE_RECORD": "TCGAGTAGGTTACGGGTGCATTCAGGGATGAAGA", "CLASS_LABEL": "false (0)"}
{"SEQUENCE_RECORD": "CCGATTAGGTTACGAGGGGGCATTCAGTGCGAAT", "CLASS_LABEL": "false (0)"}
{"SEQUENCE_RECORD": "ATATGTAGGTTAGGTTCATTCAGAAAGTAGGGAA", "CLASS_LABEL": "false (0)"}

Q: Decide: PBM binding z-score of `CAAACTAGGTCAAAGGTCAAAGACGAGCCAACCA` >= 3?
A: true (1)

Q: Please indicate if the recorded PBM binding z-score for `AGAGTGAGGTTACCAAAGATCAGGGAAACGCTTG` meets or exceeds 3.
A: false (0)

Q: Decide: is the reported value of PBM binding z-score for `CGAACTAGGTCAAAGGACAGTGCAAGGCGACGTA` equal to or greater than 3?
A: false (0)

Q: # check: PBM binding z-score of `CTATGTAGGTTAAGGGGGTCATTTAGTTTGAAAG` is greater than or equal to 3
A: true (1)

====

- Tested on: PPARg homodimer (NR concentration 180 nM)
- EXPERIMENT_NOTES: PBM binding z-score (relative to random genomic background probes); higher = stronger binding; sequences stand for … in GC…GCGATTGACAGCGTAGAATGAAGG
Decision: PBM binding z-score >= 2 yields Satisfied, all other cases yield Not satisfied.

{"SEQUENCE_RECORD": "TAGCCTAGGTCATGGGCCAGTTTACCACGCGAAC", "CLASS_LABEL": "Not satisfied"}
{"SEQUENCE_RECORD": "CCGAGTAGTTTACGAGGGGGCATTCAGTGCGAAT", "CLASS_LABEL": "Not satisfied"}
{"SEQUENCE_RECORD": "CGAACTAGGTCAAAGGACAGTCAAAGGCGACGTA", "CLASS_LABEL": "Not satisfied"}
{"SEQUENCE_RECORD": "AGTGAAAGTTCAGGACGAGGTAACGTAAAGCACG", "CLASS_LABEL": "Not satisfied"}
{"SEQUENCE_RECORD": "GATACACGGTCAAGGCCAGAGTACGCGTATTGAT", "CLASS_LABEL": "Not satisfied"}
{"SEQUENCE_RECORD": "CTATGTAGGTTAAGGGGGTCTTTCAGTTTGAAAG", "CLASS_LABEL": "Satisfied"}
{"SEQUENCE_RECORD": "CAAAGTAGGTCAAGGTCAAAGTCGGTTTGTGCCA", "CLASS_LABEL": "Satisfied"}
{"SEQUENCE_RECORD": "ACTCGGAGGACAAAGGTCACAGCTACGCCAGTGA", "CLASS_LABEL": "Satisfied"}
{"SEQUENCE_RECORD": "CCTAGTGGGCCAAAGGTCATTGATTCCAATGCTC", "CLASS_LABEL": "Satisfied"}
{"SEQUENCE_RECORD": "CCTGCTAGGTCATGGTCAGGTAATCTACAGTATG", "CLASS_LABEL": "Not satisfied"}

Q: Hello, I need to know if `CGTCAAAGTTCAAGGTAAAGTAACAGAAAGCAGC` has measured PBM binding z-score not below 2. Thanks!
A: Satisfied

Q: Evaluate `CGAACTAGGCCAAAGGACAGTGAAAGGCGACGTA` : PBM binding z-score at minimum 2?
A: Not satisfied

====

- Tested on: RXRa homodimer (NR concentration 180 nM)
- EXPERIMENT_NOTES: PBM binding z-score (relative to random genomic background probes); higher = stronger binding; sequences stand for … in GC…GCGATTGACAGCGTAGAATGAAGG
So I've got a bunch of sequences here, and I need their PBM binding z-score values.
Numbers only.

Use these answered entries as a reference point.
{"SEQUENCE_RECORD": "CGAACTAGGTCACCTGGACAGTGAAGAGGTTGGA", "PBM binding z-score": 3.36}
{"SEQUENCE_RECORD": "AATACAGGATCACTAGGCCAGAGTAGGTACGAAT", "PBM binding z-score": 0.367}
{"SEQUENCE_RECORD": "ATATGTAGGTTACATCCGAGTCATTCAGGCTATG", "PBM binding z-score": 1.04}

Can you give me PBM binding z-score for all of these, one by one?
1. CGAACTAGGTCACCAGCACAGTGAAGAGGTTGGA
2. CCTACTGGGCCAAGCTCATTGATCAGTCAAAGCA

A:
3.29
-0.732

Provide the reported PBM binding z-score of each entry below, same order.
1. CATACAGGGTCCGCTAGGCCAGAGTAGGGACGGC
2. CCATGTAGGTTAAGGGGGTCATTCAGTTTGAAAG
3. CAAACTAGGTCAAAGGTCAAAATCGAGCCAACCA
4. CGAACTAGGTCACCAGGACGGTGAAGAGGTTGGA
5. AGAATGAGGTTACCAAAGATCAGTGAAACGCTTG
6. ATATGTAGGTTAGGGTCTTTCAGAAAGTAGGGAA
7. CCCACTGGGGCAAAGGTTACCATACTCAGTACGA
8. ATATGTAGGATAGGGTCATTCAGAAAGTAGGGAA

A:
1: -0.247; 2: 5.74; 3: 10.1; 4: 3.01; 5: 2.67; 6: 0.743; 7: 3.57; 8: 4.32
